System: Cryptococcus neoformans
Conditions: Concentration 32 ug.mL-1; ASSAY_TEST Inhibition of Fungal Growth; detection method Resazurin; Absorption (OD600-OD570); plate type 384well; NBS; CORNING #3640
Description: Antifungal activity against Cryptococcus neoformans H99 ATCC 208821 (CO-ADD:FG_002); MIC in YNB media using NBS plates, by Resazurin OD(600-570)
Entries with a potency or affinity are not part of this list.
Experimental Endpoint: Inhibition (%)

> print(dat)
                                    compound          measured.target  experimental.endpoint  unit.name  measurement
 1  NNC(=O)C1(NC(=O)c2ccccc2)CC1c1cccc(O)c1 (stereo unspecified)  Cryptococcus neoformans             Inhibition          %         -0.7
 2  Cc1[nH]nc2c1C(c1ccc(O)c(O)c1)C(C#N)=C(N)O2 (stereo unspecified)  Cryptococcus neoformans             Inhibition          %         0.65
 3                  NNC(=O)Cc1c[nH]c2ccccc12  Cryptococcus neoformans             Inhibition          %        -6.14
 4         CCC(CC)NNC(=O)c1c[nH]c2ccccc12.Cl  Cryptococcus neoformans             Inhibition          %         4.78
 5   CC1=NC(=Cc2ccc([N+](=O)[O-])cc2)C(=O)O1  Cryptococcus neoformans             Inhibition          %        -1.41
 6  N#CC1(Br)C(=NBr)Oc2ccc3ccccc3c2C1c1ccccc1 (stereo unspecified)  Cryptococcus neoformans             Inhibition          %        -1.83
 7  CSC1=NC2(CC2c2ccccc2)C(=O)N1C (stereo unspecified)  Cryptococcus neoformans             Inhibition          %        -5.95
 8  O=C(COc1ccc2ccccc2c1)NNCc1c[nH]c2ccccc12  Cryptococcus neoformans             Inhibition          %        -4.32
 9  O=C(N/N=C/Cc1ccccc1)c1cc2ccccc2n1Cc1ccccc1  Cryptococcus neoformans             Inhibition          %        -1.83
10  COc1ccc2cc(C3C4=C(CC(C)(C)CC4=O)Oc4nc5c(c(N)c43)CCCC5)c(Cl)nc2c1 (stereo unspecified)  Cryptococcus neoformans             Inhibition          %        -9.09
11  CC1CC(=O)Nc2c1c(Cl)nc1nc3c(c(N)c21)CCCC3 (stereo unspecified)  Cryptococcus neoformans             Inhibition          %       -92.92

The values you see were collected from ChEMBL document CHEMBL4513135.
